- assayed-system: Syk (Homo sapiens)
- Construct: purchased Carna Biosciences
- experiment: Syk HTRF assay
- Type: biochemical
- test-settings: read-out: Activity Level (Syk HTRF assay IC50)
measure-name: IC50

Give recorded IC50. `Cn1cnc2cc(Nc3nc4cccc(-c5ccccc5)n4n3)ccc21` 250 to 500 nM

---
Tell us which IC50 value is on record for `Cc1nc2cc(Nc3nc4cccc(-c5ccccc5)n4n3)ccc2[nH]1` 0.005 to 250 nM

Input `c1ccc(-c2cccc3nc(Nc4ccc(-c5ncn[nH]5)cc4)nn23)cc1` , output reported IC50. 0.005 to 250 nM

Determine from records and report IC50 for CC(c1cccc2nc(Nc3ccc4c(c3)NC(=O)C4(C)C)nn12)C1CCOCC1 (stereo not shown) 0.005 to 250 nM

Provide one value: measured IC50 of `Cn1ncc2ccc(Nc3nc4cccc(-c5ccccc5)n4n3)cc21` 0.005 to 250 nM

For the compound `COCCn1nc(C)c2ccc(Nc3nc4cccc(N[C@H]5CC[C@@H](O)CC5)n4n3)cc21` , report IC50. 250 to 500 nM

Given the compound `N#Cc1cccc(Nc2nc3cccc(-c4ccccc4)n3n2)c1` , write its reported IC50. 1000 to 10000 nM
